assay name: yeast display, Sf9 membrane polyspecificity reagent, FACS + sequencing; frameworks hold sequencing errors
measured quantity: polyreactivity (PSR sort gate)

sequence_data=QVQLVESGGGLVQAGGSLRLSCAASGSIFGYYTMGWYRQAPGKERELVATINWSGGNTYYADSVKGRFTISRDNAKNTVYLQMNSLKPEDTAVYYCATRPRRGTSENGYWGQGTQVTVSS assay_value="high polyreactivity"
sequence_data=QVQLVESGGGLVQAGGSLRLSCAASGSIFVGNAMGLYRQAPGKERELVAAISSSGGRTFYADSVKGRFTISRDIAKNSVYLQMNSLKPEDTAVYYCAAYLWSYVFNLYEYWGQGTQVTVSS assay_value="high polyreactivity"
sequence_data=QVQLVESGGGLVQAGGILRLSCAASGRTFKYYAMGWYRQAPGKERELVATITWSGTSTNFADSVKGRFTISRDNAKNTVYLQMNSLKPEDTAVYYCAARSKRRNYDYWGQGTQVTVSS assay_value="high polyreactivity"
sequence_data=QVQLVESGGGLVQAGGSLRLSCAASGSIFKFYAMGWYRQAPGKERELVAAISQSGGRTYYADSVKGRFTISRDNAKNTVYLQMNSLKPEDTAVYYCAKSVFPVYGRPSNLWFNYWGQGTQVTVSS assay_value="high polyreactivity"
sequence_data=QVQLVESGGGLVQAGGSLRLSCAASGSTLSYYAMGWYRPAPGKDRELVAAISFSGGITYYADSVKGRFTISRDNAKNTVYLQMNSLKPEDTAVYYCNAEYQVYRAYVIWYDYWGQGTQVTVSS assay_value="high polyreactivity"

Please go through the list and note polyreactivity (PSR sort gate) for each sequence.
1. QVQLVESGGGVVQAGGSLRLSCAASGTTFSWYAMGGYRQAPGKERVLVAAISSGGSTNYADSVKGRFTISRDNAKNTVYLQMNSLKPEDTAVYYCAAVWSRYLISYSTGWWFEYWGQGTQVTVSS
2. KVQLVESVGGLVQAGGSLRLSCAASGRIFGVNAMGWYRQAPGKERELVAAIRSGDSTNYADSVKGRFTISRDNAKNTVYLQMNSLKPEDTAVYYCATDLYFDLRYDYWGQGTQVTVSS

low polyreactivity
low polyreactivity

----------
assay name: yeast display, Sf9 membrane polyspecificity reagent, FACS + sequencing; frameworks hold sequencing errors
measured quantity: polyreactivity (PSR sort gate)

Below, 5 sequences whose answers are already recorded.
sequence_data=QVQLEESGGGLVQAGGSLRLSCAAYGGIFKQYAMGWYRQAPGKETELVAAITWSGGSTYYADSVKGRFTISRDNAKTTVSLQMNSLKPEDTAVYYCAKDYVVFQYVDFQDDDYWGQGTQVSVSS measured_quantity="polyreactivity (PSR sort gate)" assay_value="low polyreactivity"
sequence_data=QVQLVESGGGLVQAGGSLRLTCDASGFTFPFYTMGWYRQEPGKERELVAAISASGGRTYYADSVKGRFTISRDNAKNTVYLQMNSLKPEDTGVYYCATYPTPKYFRWRGDYWGQGTQVTVSS measured_quantity="polyreactivity (PSR sort gate)" assay_value="high polyreactivity"
sequence_data=QVQLVESGGGLVQAGGSLRLSCAASGSTFRYYVMGWYSQSPGKERELVAGISYRGGTTYYADSVKGRFTISRDNAKNTVYLQMYILKPEDTAVYYCNAETAAAQASYDRLYVLLDYWGQGTQVTVSS measured_quantity="polyreactivity (PSR sort gate)" assay_value="low polyreactivity"
sequence_data=QVQLVESGGGLVQAGGSLRLSCAASGSTFIDYGMGWYRQAPGKERELVAAIDLDSGDTYYADSVKGRFTISRENAKNTVYLQMNSLKPEDTAVYYCAAQYWYRYNYWGQGTQVTVSS measured_quantity="polyreactivity (PSR sort gate)" assay_value="low polyreactivity"
sequence_data=QVQLVESGGGLVQAGGSLRLSCAASGSIFSSYAMGWYRQAPGKERELVAVITSGDSTNYADSVKGRFTISRDNAKNTVYLQMNSLKPEDTAVYYCAAGTQAHAYVVRPIEMDYWGQGTQVTVSS measured_quantity="polyreactivity (PSR sort gate)" assay_value="low polyreactivity"

Record polyreactivity (PSR sort gate) for all entries; do not skip any.
1. QVQLVESGGGLVQAGGSLRLSCAASGSTFSYYVMGWYRQAPGKERELVAAISGSGGSTYYSDSVKGRFTISRDNAKNTVYLQMNSLKPEDTAVYYCAANDGSEYDYWGQGTQVTVSS
2. QVQLLESAGGLVQAGGSLRLRCSASGYISCDASMGWYRHAPGKERELAASITKGSSTNYADSEKGRFTIRDNAINTVYLQMNSLKPEDTAVCYCAVTYPYWGDYTYWGHGTQVTVSS

high polyreactivity
low polyreactivity

Items follow; give polyreactivity (PSR sort gate) for each.
1. QVQLVESGGGLVQAGGSLRLSCAASGRTLYRYAMGWYRQAPGKERELVAAISSGGRTYYADSVKGRFTISRDNAKNTVYLQMNSLKPEDTAVYYCAAERGWWRNDFDYWGQGTQVTVSS
2. QVQLVESGGGLVQAGGSLRLSCAASGRTFWYYTMGWYRQAPGKEREFVAAISYSAGNTYYADSVKGRFTISRDNAKNTVYLQMNSLKPEDTAVYYCAVQRGYRSNAYDYWGQGTQVTVSS

high polyreactivity
high polyreactivity

meta.source: the nanobody polyreactivity screen of Harvey et al. (2022)
